Below, each of the compounds is paired with its reported ^3 H-Thymidine uptake by thymocytes value.
Test system: Interleukin 1 (IL-1) production by peritoneal macrophages
Experiment: IL-1 Assay: production of interleukin-1 by peritoneal macrophages (thymocyte bioassay)
Format: cell-based, mouse (C57B1/6)
Conditions: 25 ug/ml

{"compound": "CC1(C)OC2OC(C(O)COCCCc3ccccc3)C(O)C2O1 (stereo not drawn)", "assay target": "Interleukin 1 (IL-1) production by peritoneal macrophages", "^3 H-Thymidine uptake by thymocytes": "1,840 ± 301 cpm"}
{"compound": "CCCCC/C=C/COC[C@H]1O[C@@]2(OC)COC(C)(C)O[C@H]2[C@@H]1OC/C=C/CCCCC", "assay target": "Interleukin 1 (IL-1) production by peritoneal macrophages", "^3 H-Thymidine uptake by thymocytes": "5,300 ± 1,405 cpm"}
{"compound": "CCCCCC#CCOC[C@H]1O[C@@]2(OC)COC(C)(C)O[C@H]2[C@@H]1OCC#CCCCCC", "assay target": "Interleukin 1 (IL-1) production by peritoneal macrophages", "^3 H-Thymidine uptake by thymocytes": "2,537 ± 182 cpm"}
{"compound": "CCCCCCCOC[C@H]1O[C@@]2(OC)COC(C)(C)O[C@H]2[C@@H]1O", "assay target": "Interleukin 1 (IL-1) production by peritoneal macrophages", "^3 H-Thymidine uptake by thymocytes": "3,210 ± 149 cpm"}
{"compound": "CCCCCCCOCCCO[C@@H]1[C@H]2OC(C)(C)O[C@H]2O[C@@H]1[C@H](O)CO", "assay target": "Interleukin 1 (IL-1) production by peritoneal macrophages", "^3 H-Thymidine uptake by thymocytes": "3,265 ± 141 cpm"}
{"compound": "CN1CCCC1CCNC[C@H]1OC(C)(C)O[C@@H]2[C@H]3OC(C)(C)O[C@H]3O[C@@H]21 (stereo partly drawn)", "assay target": "Interleukin 1 (IL-1) production by peritoneal macrophages", "^3 H-Thymidine uptake by thymocytes": "5,052 ± 140 cpm"}
